# Test system: Staphylococcus aureus
# Assay summary: Antibacterial activity against Staphylococcus aureus at 10 ug/ml by disc diffusion method
# Type: functional
# Stated conditions: read-out: DIZ
Metric: zone of inhibition at 10 µg/mL (mm)

>>> value_observed("Nc1ccc(S(=O)(=O)Nc2nccs2)cc1")
10
>>> value_observed("COc1cccc(/C=N/c2ccc(S(=O)(=O)Nc3cc(C)on3)cc2)c1O")
8
>>> value_observed("COc1cccc(C2C(Cl)C(=O)N2c2ccc(S(=O)(=O)Nc3cc(C)on3)cc2)c1O (stereo unspecified)")
9
>>> value_observed("Cc1cc(NS(=O)(=O)c2ccc(N)cc2)no1")
6
>>> value_observed("COc1cccc(/C=N/c2ccc(S(=O)(=O)Nc3nccs3)cc2)c1O")
9
>>> value_observed("COc1cccc(C2C(Cl)C(=O)N2c2ccc(S(=O)(=O)Nc3nccs3)cc2)c1O (stereo unspecified)")
8

----------
# System: Escherichia coli
# Assay summary: Antibacterial activity against Escherichia coli at 50 ug/ml by disc diffusion method
# Format: functional
# Stated conditions: read-out: DIZ
zone of inhibition at 50 µg/mL values by entry
Metric: zone of inhibition at 50 µg/mL (mm)

>>> value_observed("COc1cccc(C2C(Cl)C(=O)N2c2ccc(S(=O)(=O)Nc3cc(C)on3)cc2)c1O (stereo unspecified)")
13
>>> value_observed("COc1cccc(/C=N/c2ccc(S(=O)(=O)Nc3cc(C)on3)cc2)c1O")
11
>>> value_observed("COc1cccc(C2C(Cl)C(=O)N2c2ccc(S(=O)(=O)Nc3nccs3)cc2)c1O (stereo unspecified)")
12
>>> value_observed("Cc1cc(NS(=O)(=O)c2ccc(N)cc2)no1")
10
>>> value_observed("Nc1ccc(S(=O)(=O)Nc2nccs2)cc1")
10
>>> value_observed("COc1cccc(/C=N/c2ccc(S(=O)(=O)Nc3nccs3)cc2)c1O")
12

----------
# Tested on: Escherichia coli
# Assay summary: Antibacterial activity against Escherichia coli at 1 ug/ml by disc diffusion method
# Format: functional
# Stated conditions: read-out: DIZ
Metric: zone of inhibition at 1 µg/mL (mm)

>>> value_observed("COc1cccc(C2C(Cl)C(=O)N2c2ccc(S(=O)(=O)Nc3cc(C)on3)cc2)c1O (centres undefined)")
7
>>> value_observed("COc1cccc(/C=N/c2ccc(S(=O)(=O)Nc3nccs3)cc2)c1O")
6
>>> value_observed("COc1cccc(C2C(Cl)C(=O)N2c2ccc(S(=O)(=O)Nc3nccs3)cc2)c1O (centres undefined)")
6
>>> value_observed("COc1cccc(/C=N/c2ccc(S(=O)(=O)Nc3cc(C)on3)cc2)c1O")
6
